The measurements presented in this section are drawn from paper PMC5540273.

Tested on: PRKCI
Conditions: concentration: 1 μM, replicates: in singlicate; n = 1;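 also: KINOMEscan kinase panel screen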

molecule	%Inh / %
CCn1c(-c2ccccn2)nc2cnccc21 [SB-736398]	30
Fc1cccc(COc2nnc(-c3ccc4c(c3)CCO4)o2)c1	0
Cc1ccc(NC(=O)Nc2cc(C(C)(C)C)nn2-c2ccccc2)cc1 [GSK1014915]	28

* * *

System: TNNI3K
Settings: concentration: 1 μM, replicates: in singlicate; n = 1

molecule	%Inh (%)
Cn1ccc2ncnc(Oc3cccc(C(=O)Nc4ccccc4)c3)c21	1
COc1cc2ncn(-c3cc(OCC4CCCO4)c(C(N)=O)s3)c2cc1OC (stereo not drawn) [GSK204607]	0
Cl.NC(=O)c1cccc(Nc2nccc(Nc3ccc(Oc4cccc(Cl)c4)c(Cl)c3)n2)c1 [GW659008]	4
NC(=O)c1nnc2ccccc2c1N	5
Cn1ccc2ncnc(Oc3ccc(Nc4nc5ccccc5[nH]4)cc3)c21	0
COc1ccc(Nc2nccc(-c3cccc(NC(=O)c4cc5cc(F)ccc5[nH]4)c3)n2)cc1 [GSK1229782]	0
CC(C)(C)c1ccc(C(=O)Nc2cn3cc(Cl)ccc3n2)cc1	0
O=C(Nc1ccccc1)Nc1cccc(Oc2ccc3nccn3n2)c1	0
COc1ccc(C2=C(Nc3cccc(C(=O)O)c3)C(=O)NC2=O)cc1 [SB-390765]	0
